# test: qHTS profiling of the MIPE4 collection as inhibitors of Plasmodium falciparum (3D7) proliferation (AID 743344);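 note: scaled between DMSO vehicle wells and 0.29 µM artemisinin as full inhibition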
# reportedConditions: P. falciparum 3D7 in erythrocytes, SYBR Green DNA fluorescence, 72 h; at 28.5 µM unless noted
# Method: Plasmodium falciparum is a virulent malarial parasite that kills 1-2 million people worldwide each year. […] Because mature erythrocytes lack DNA, only Plasmodium-derived DNA is detected. The SYBR Green viability assay was adapted from a method described previously (Plouffe et al., 2008). […] The following morning, fluorescence intensity at 485(14) nm excitation and 535(25) nm emission wavelengths was measured on an EnVision (Perkin Elmer) plate reader. […]
measuredProperty: parasite growth, % of DMSO control (%)

compound: CN1c2cc(O)c(N=NC(N)=O)cc2CC1S(=O)(=O)O (stereo not given)
measuredProperty: parasite growth, % of DMSO control
valueObserved: 37.8

compound: CN1C(=O)C[C@H](C(=O)N[C@@H](Cc2cnc[nH]2)C(=O)N2CCC[C@@H]2C(N)=O)NC1=O
measuredProperty: parasite growth, % of DMSO control
valueObserved: 86

compound: CCN1C[C@H](C)n2c(c(O)c3c(=O)n(Cc4ccc(F)c(Cl)c4)nc(C(=O)NC)c32)C1=O
measuredProperty: parasite growth, % of DMSO control
valueObserved: 43.2

compound: O=c1[nH]c(=O)n([C@H]2C[C@@H](O)[C@@H](CO)O2)cc1C=CBr
measuredProperty: parasite growth, % of DMSO control
valueObserved: 139

compound: C[N+](C)([O-])CCNc1ccc(NCC[N+](C)(C)[O-])c2c1C(=O)c1c(O)ccc(O)c1C2=O
measuredProperty: parasite growth, % of DMSO control
valueObserved: 49

* * *

# test: qHTS for Inhibitors of the Functional Ribonucleoprotein Complex (vRNP) of Lassa (LASV) Arenavirus: LASV Primary Screen - GLuc reporter signal (AID 1347082); note: nearly all actives have a fitted effect of over 60% in size
# reportedConditions: LASV minigenome vRNP, Gaussia luciferase reporter; series mostly up to 57.5 µM
Records with an inconclusive call do not appear. The source made the active and inactive calls. Calls follow the shape of the full dose curve; tested in HEK293 reporter line.
Labels: active, inactive

compound: CC=O
assignedCategory: inactive

compound: COc1cc(OC)c2c(c1Cl)O[C@@]1(C2=O)[C@H](C)CC(=O)C[C@@H]1OC
assignedCategory: inactive

compound: C/C=C(\C)C(=O)O[C@@H]([C@H](O)c1cc2ccc(=O)oc2cc1OC)C(C)(C)O
assignedCategory: inactive

compound: O=C(O)/C=C/c1ccccc1
assignedCategory: inactive

compound: COc1ccc2cc(-c3nc(-c4ccc(S(C)=O)cc4)[nH]c3-c3ccncc3)ccc2c1 (configuration not stated)
assignedCategory: inactive

compound: CC(C)NC[C@H](O)COc1cccc2[nH]ccc12
assignedCategory: inactive

compound: CN1C(=O)C[C@H](C(=O)N[C@@H](Cc2cnc[nH]2)C(=O)N2CCC[C@@H]2C(N)=O)NC1=O
assignedCategory: inactive

compound: CCCCCCCC(=O)O
assignedCategory: inactive

compound: CC(=O)c1ccc(C)cc1
assignedCategory: inactive

compound: COc1cc2ncn(-c3cc(OCc4ccccc4S(C)(=O)=O)c(C#N)s3)c2cc1OC
assignedCategory: inactive

compound: CCC/C=C/C/C=C/C=C/C=N/NN=O
assignedCategory: inactive

compound: CCCCOc1c(C(=O)c2c(F)cc(C)cc2F)cnc2n[nH]cc12
assignedCategory: active

Attribution: PubChem BioAssay (NCATS)
